Source listed as PubChem BioAssay.

# System under test: NAD(+) hydrolase SARM1 (Homo sapiens) (UniProt Q6SZW1)
# Sequence (Q6SZW1 whole entry, looked up): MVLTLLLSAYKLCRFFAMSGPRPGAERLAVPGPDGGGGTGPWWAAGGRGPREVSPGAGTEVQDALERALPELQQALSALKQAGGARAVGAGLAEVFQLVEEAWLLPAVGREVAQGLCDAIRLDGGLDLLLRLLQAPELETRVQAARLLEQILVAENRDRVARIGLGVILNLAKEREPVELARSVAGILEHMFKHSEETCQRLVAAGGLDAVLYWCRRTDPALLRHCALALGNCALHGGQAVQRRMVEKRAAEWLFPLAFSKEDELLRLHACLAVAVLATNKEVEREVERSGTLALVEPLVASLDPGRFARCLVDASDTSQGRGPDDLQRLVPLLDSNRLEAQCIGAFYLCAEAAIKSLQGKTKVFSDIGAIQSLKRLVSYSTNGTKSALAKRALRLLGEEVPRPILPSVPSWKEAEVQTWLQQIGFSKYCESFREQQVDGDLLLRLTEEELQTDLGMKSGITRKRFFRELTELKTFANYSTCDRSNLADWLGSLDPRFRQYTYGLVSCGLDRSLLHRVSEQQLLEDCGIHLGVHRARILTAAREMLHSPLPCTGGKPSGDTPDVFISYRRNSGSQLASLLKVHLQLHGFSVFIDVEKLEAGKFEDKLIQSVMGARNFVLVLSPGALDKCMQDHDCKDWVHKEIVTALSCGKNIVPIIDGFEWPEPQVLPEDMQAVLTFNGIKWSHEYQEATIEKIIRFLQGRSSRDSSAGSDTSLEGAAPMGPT
# Experimental details: SARM1 TIR NADase inhibitors, cell lysate, NAD-Glo luminescence (AID 1508614);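 further: higher remaining NAD means stronger inhibition of SARM1 NADase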
# Condition summary: SAM-TIR HEK293T lysate NADase, at 1 µM
Activity calls are given as the source filed them.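 How the source made its calls: active means compound whose remaining NAD level is above about 45 nM (limit read from the data); inactive means the rest.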
Log the outcome using a class from Yes = active, No = inactive

As a guide, the following entries are already answered.
Compound: OC[C@H]1O[C@H](O[C@]2(CCl)O[C@H](CCl)[C@@H](O)[C@@H]2O)[C@H](O)[C@@H](O)[C@H]1Cl
System under test: NAD(+) hydrolase SARM1 (Homo sapiens) (UniProt Q6SZW1)
Cat: No
--
Compound: O=C(c1ccc(OCCN2CCCCC2)cc1)c1c(-c2ccc(O)cc2)sc2cc(O)ccc12
System under test: NAD(+) hydrolase SARM1 (Homo sapiens) (UniProt Q6SZW1)
Cat: No
--
Compound: Cc1c(-c2cnccn2)ssc1=S
System under test: NAD(+) hydrolase SARM1 (Homo sapiens) (UniProt Q6SZW1)
Cat: No

Query: recorded result category for `CC(=O)Oc1c(C)cccc1C(=O)O` in this test
No

Query: recorded result category for `Cc1cc(-c2ccc(N=Nc3ccc4c(S(=O)(=O)O)cc(S(=O)(=O)O)c(N)c4c3O)c(C)c2)ccc1N=Nc1ccc2c(S(=O)(=O)O)cc(S(=O)(=O)O)c(N)c2c1O` in this test
No

* * *

Documented fold change across a set of compounds
# Experimental details: sensitizers of A549 cells to miR-34 induction, primary screen, imaging, A549 dox-inducible miR-34, nuclei and caspase counts (AID 1347080)
# Condition summary: A549 miR-34 inducible, Hoechst nuclei count, 48 h; hits give low values; cell number ratio, induced over uninduced
Respond numerically, and do not add a unit to the figure.

Compound: CN(CCO)CC(O)Cn1cnc2c1c(=O)n(C)c(=O)n2C (stereo not given) (tested in a mixture with another compound)
fold change: 1.72

Compound: C=C1CC2C3C=C(C)C4=CC(=O)CC[C@]4(C)C3CC[C@]2(C)[C@@]1(OC(C)=O)C(C)=O (stereo not given in full)
fold change: 0.949

Compound: CC(C)Nc1ncccn1
fold change: 0.885

Compound: C#C[C@]1(O)CCC2C3CCC4=CC(=O)CC[C@@H]4C3CC[C@@]21C (stereo not given in full)
fold change: 0.914

# context switch: different compound, same fold change
Report fold change for `CCN(c1ccccc1)c1cc(NC)[n+](C)c(C)n1`
1.03

* * *

# Tested on: F380Y/beta4
# Experimental details: modulators of BK channel variants, profiling panel, selectivity assay, cell-based, U2OS BacMam, thallium flux, beta subunits (AID 1259406);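 further: initial slope of Thallos dye fluorescence rise after thallium is added; log ratio against the mean of 0.3% DMSO vehicle wells on the same plate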
# Condition summary: at 30 µM
Documented log fold change Tl+ flux across a set of molecules
Respond numerically, and do not add a unit to the figure.

# example entries with known answers
Molecule: CN(C1CCCCC1)S(=O)(=O)c1cccs1
log fold change Tl+ flux: 0.000313
--
Molecule: O=C(CNc1cc(C(F)(F)F)cc(C(F)(F)F)c1)c1ccc(Cl)cc1
log fold change Tl+ flux: -0.0229
--
Molecule: CC12CC=C(C#N)C1(C)CC=C2C#N (centres undefined)
log fold change Tl+ flux: 0.00555
--
Molecule: CC(C)=CC(C)=NNc1c([N+](=O)[O-])cc(C(F)(F)F)cc1[N+](=O)[O-]
log fold change Tl+ flux: 0.0221

Report log fold change Tl+ flux for `O=C(O)c1ccccc1C(=O)NCc1ccccc1OC(F)(F)F`
0.0063

Report log fold change Tl+ flux for `CCOC(=O)c1ccc(OCC#Cc2ccc(C(F)(F)F)cn2)cc1`
-0.0657

Report log fold change Tl+ flux for `Cc1c(O)nc2ccccn2c1=O`
0.00904

Report log fold change Tl+ flux for `O=C(O)COCCN1CCN([C@H](c2ccccc2)c2ccc(Cl)cc2)CC1`
-0.027

Report log fold change Tl+ flux for `O=S(=O)(Nc1cc(Cl)c(-n2cccc2)cc1Oc1ccc(Cl)cc1)c1ccc(Cl)cc1`
-0.0612
